# TEST PROTOCOL: Permeability of the compound at 100 uM measured after 40 mins by PAMPA
# Format: ADME
# SETUP CONDITIONS: read-out: permeability
RESULT TYPE: Papp at 40 min, 100 µM (×10⁻⁶ cm/s)

CNc1ccccc1OCCNCC1(F)CCN(C(=O)c2ccc(F)c(Cl)c2)CC1 : 6.7

[1] O=C(c1ccc(F)c(Cl)c1)N1CCC(F)(CNCCOc2ccccc2)CC1
[2] O=C(c1ccc(F)c(Cl)c1)N1CCC(F)(CNCCOc2cccc3[nH]ccc23)CC1
Incoming: Of 1 versus 2 , which is the one with smaller reported Papp at 40 min, 100 µM? Give the chosen item's label as your response.
Outgoing: 2
(2: 4.7 ×10⁻⁶ cm/s, 1: 8.6 ×10⁻⁶ cm/s)

###

# TARGET DESC: 5-hydroxytryptamine receptor 1A (Homo sapiens, UniProt P08908)
# Sequence (P08908 whole entry): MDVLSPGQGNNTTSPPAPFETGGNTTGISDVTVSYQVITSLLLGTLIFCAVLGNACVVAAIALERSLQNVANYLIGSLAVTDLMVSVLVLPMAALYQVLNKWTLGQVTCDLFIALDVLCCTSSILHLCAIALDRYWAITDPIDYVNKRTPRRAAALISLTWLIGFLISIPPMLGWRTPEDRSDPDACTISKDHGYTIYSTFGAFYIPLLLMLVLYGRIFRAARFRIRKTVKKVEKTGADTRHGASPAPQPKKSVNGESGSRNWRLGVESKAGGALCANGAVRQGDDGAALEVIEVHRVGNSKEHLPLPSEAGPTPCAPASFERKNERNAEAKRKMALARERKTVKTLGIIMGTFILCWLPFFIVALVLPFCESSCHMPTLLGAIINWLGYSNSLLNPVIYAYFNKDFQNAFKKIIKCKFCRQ
# TEST PROTOCOL: Biased agonist activity at Gal4-VP16 transcription factor linked human 5-HT1A receptor expressed in human U2OS cells assessed as induction of beta-arrestin2 recruitment measured after 5 hrs by Tango assay
# Type: cell-based
pEC50: −log10 of the molar value.
RESULT TYPE: pEC50

[P] O=C(c1ccc(F)c(Cl)c1)N1CCC(F)(CNCCOc2cccc3c2CCN3)CC1
[Q] O=C(c1ccc(Cl)c(Cl)c1)N1CCC(F)(CNCCOc2cccc(F)c2)CC1
Incoming: Of P versus Q , which is the one with smaller reported pEC50? Give the chosen item's label as your response.
Outgoing: Q
(Q: 6.21, P: 11.29)

###

# TARGET DESC: UniProt:P08908
pKi: −log10 of the molar value.
RESULT TYPE: pKi

O=C(c1ccc(Cl)c(Cl)c1)N1CCC(F)(CNCCOc2cccc(Cl)c2)CC1 : 10.60

[P] O=C(c1ccc(Cl)c(Cl)c1)N1CCC(F)(CNCCOc2cccc(F)c2)CC1
[Q] O=C(c1ccc(F)c(Cl)c1)N1CCC(F)(CNCCOc2cccc3c2CCN3)CC1
Incoming: Which item exceeds the other in pKi, P or Q ? Give the chosen item's label as your response.
Outgoing: P

###

# TEST PROTOCOL: Hepatotoxicity in human HepG2 cells assessed as concentration required to show 50% cell viability measured after 72 hrs by celltiter 96 aqueous non-Radioactive cell proliferation assay
# Assay type: toxicity, cell-based
# SETUP CONDITIONS: read-out: Activity
The molecules listed here are annotated with their CC50 at 72 h.

O=C(c1ccc(F)c(Cl)c1)N1CCC(F)(CNCCOc2ccccc2)CC1 : > 50 µM
COc1cccc2c1C(=O)c1c(O)c3c(c(O)c1C2=O)C[C@@](O)(C(=O)CO)C[C@@H]3O[C@H]1C[C@H](N)[C@H](O)[C@H](C)O1 [DOXORUBICIN] : < 1 µM
N#CC(C#N)=NNc1cccc(Cl)c1 [CARBONYL CYANIDE M-CHLOROPHENYLHYDRAZONE] : < 10 µM

Incoming: Looking for the measured CC50 at 72 h of O=C(c1ccc(F)c(Cl)c1)N1CCC(F)(CNCCOc2cccc3[nH]ccc23)CC1 , can you help?
Outgoing: > 50 µM

###

# TEST PROTOCOL: Stability in rat liver microsomes assessed as parent compound remaining at 50 uM preincubated for 5 mins followed by NADPH addition and measured after 2 hrs by LC-MS analysis
# Format: ADME, Microsome
# SETUP CONDITIONS: time 125 min, read-out: Stabilty
RESULT TYPE: remaining at 2 h, 50 µM (%)

CC(=O)Nc1cccc(OCCNCC2(F)CCN(C(=O)c3ccc(F)c(Cl)c3)CC2)c1 : 73
O=C(c1ccc(F)c(Cl)c1)N1CCC(F)(CNCCOc2ccccc2)CC1 : 54
O=C(c1ccc(F)c(Cl)c1)N1CCC(F)(CNCCOc2ccccn2)CC1 : 54
O=C(c1ccc(F)c(Cl)c1)N1CCC(F)(CNCCOc2cccc3cccnc23)CC1 : 73
CNc1ccccc1OCCNCC1(F)CCN(C(=O)c2ccc(F)c(Cl)c2)CC1 : 54

###

# TARGET DESC: D(2) dopamine receptor (Homo sapiens, UniProt P14416)
# Sequence (P14416 whole entry): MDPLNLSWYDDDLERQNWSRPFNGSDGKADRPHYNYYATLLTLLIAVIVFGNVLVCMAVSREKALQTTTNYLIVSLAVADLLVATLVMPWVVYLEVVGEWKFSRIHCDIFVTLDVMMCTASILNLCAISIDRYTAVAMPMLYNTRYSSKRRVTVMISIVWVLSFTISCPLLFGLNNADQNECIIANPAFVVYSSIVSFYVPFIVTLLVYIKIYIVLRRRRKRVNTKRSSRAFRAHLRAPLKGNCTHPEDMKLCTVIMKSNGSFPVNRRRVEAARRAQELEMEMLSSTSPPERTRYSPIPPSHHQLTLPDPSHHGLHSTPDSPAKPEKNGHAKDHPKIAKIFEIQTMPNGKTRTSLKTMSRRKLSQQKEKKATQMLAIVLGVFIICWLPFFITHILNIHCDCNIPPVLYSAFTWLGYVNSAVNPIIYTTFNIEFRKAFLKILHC
# TEST PROTOCOL: Displacement of [3H]methylspiperone from human D2 receptor stably expressed in CHO-K1 cell membranes measured after 60 mins by Microbeta2 scintillation counting method
pKi: −log10 of the molar value.
RESULT TYPE: pKi

Would you please look over these solved cases?
O=C(c1ccc(F)c(Cl)c1)N1CCC(F)(CNCCOc2cccc3c2CCN3)CC1 : < 6.00
O=C(c1ccc(Cl)c(Cl)c1)N1CCC(F)(CNCCOc2cccc(F)c2)CC1 : < 6.00

Incoming: Looking for the measured pKi of O=C(c1ccc(Cl)c(Cl)c1)N1CCC(F)(CNCCOc2cccc(Cl)c2)CC1 , can you help?
Outgoing: < 6.00

###

# TARGET DESC: Adrenergic receptor alpha-1 (Rattus norvegicus, UniProt P15823+P23944+P43140)
# Sequence (P15823 whole entry): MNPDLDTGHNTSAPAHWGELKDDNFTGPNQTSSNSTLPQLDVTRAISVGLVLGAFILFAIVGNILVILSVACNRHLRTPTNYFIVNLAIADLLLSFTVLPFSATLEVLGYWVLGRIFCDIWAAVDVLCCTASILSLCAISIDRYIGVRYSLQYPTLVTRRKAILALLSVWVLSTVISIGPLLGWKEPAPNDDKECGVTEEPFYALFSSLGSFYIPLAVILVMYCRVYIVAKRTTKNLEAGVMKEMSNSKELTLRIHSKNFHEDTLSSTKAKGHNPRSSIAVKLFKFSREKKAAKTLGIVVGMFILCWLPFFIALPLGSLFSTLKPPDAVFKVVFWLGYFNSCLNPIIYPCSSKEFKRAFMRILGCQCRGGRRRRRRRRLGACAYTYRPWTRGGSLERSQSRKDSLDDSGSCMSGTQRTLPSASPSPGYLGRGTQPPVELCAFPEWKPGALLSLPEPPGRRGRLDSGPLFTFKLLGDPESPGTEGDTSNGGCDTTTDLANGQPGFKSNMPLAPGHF
# Sequence (P23944 whole entry): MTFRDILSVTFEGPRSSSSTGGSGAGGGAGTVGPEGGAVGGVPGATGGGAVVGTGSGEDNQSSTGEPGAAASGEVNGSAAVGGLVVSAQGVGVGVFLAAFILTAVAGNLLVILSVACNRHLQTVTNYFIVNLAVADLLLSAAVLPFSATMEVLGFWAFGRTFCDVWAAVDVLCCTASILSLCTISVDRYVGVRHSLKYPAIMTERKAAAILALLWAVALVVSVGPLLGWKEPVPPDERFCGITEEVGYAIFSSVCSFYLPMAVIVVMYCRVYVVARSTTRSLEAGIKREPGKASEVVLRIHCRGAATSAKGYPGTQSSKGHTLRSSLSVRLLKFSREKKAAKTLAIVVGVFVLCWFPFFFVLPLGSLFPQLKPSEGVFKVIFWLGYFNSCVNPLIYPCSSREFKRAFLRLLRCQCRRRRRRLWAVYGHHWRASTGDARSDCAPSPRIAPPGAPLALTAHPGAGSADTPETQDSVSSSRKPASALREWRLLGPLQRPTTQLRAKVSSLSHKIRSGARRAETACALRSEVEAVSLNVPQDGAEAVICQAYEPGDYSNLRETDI
# Sequence (P43140 whole entry): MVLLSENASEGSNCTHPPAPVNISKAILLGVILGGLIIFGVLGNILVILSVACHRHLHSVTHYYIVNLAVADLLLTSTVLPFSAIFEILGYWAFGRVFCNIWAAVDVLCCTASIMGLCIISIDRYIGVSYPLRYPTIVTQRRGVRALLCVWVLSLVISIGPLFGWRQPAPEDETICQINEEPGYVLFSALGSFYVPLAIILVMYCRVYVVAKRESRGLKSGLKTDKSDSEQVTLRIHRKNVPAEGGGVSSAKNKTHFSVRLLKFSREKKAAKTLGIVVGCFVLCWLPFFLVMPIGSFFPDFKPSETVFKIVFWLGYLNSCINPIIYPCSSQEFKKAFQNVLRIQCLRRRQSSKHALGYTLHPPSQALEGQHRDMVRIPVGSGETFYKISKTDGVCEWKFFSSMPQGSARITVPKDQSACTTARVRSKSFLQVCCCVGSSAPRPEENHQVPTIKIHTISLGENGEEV
# TEST PROTOCOL: Displacement of [3H]prazosin from alpha1 adrenergic receptor in rat cortex membranes measured after 30 mins by Microbeta2 scintillation counting method
# Assay type: cell membranes
RESULT TYPE: pKi

Would you please look over these solved cases?
CNc1ccccc1OCCNCC1(F)CCN(C(=O)c2ccc(F)c(Cl)c2)CC1 : 6.04
O=C(c1ccc(Cl)c(Cl)c1)N1CCC(F)(CNCCOc2cccc(Cl)c2)CC1 : < 6

Incoming: Looking for the measured pKi of CC1(C)Cc2cccc(OCCNCC3(F)CCN(C(=O)c4ccc(F)c(Cl)c4)CC3)c2O1 , can you help?
Outgoing: 7.76

Incoming: Next: O=C(c1ccc(Cl)c(Cl)c1)N1CCC(F)(CNCCOc2cccc(F)c2)CC1
Outgoing: 6.2

Incoming: Next: Cc1cnc(CNCC2(F)CCN(C(=O)c3ccc(F)c(Cl)c3)CC2)nc1
Outgoing: < 6

Incoming: Next: O=C(c1ccc(F)c(Cl)c1)N1CCC(F)(CNCCOc2cccc(C(F)(F)F)c2)CC1
Outgoing: < 6

Incoming: Next: O=C(c1ccc(F)c(Cl)c1)N1CCC(F)(CNCCOc2ccccc2F)CC1
Outgoing: < 6
